# experiment-notes: Plasma concentrations in rats after intravenous administration
# Format: in vivo, rat
# stated-conditions: in vivo; rat, intravenous, 4 mg/kg; read-out: peak plasma concentration (Cmax) of parent compound
readout-label: Cmax

Q: Report Cmax, nothing else, for this compound: CC(=O)O.CC(=O)n1cc(CCN(C)C)c2cc(CC3COC(=O)N3)ccc21 (stereo not shown)
Ans: ~200 ng/mL

###

# experiment-notes: Plasma concentrations in rats after intravenous administration
# Format: in vivo, rat
# stated-conditions: in vivo; rat, intravenous, 4 mg/kg
readout-label: half-life

Q: Report half-life, nothing else, for this molecule: CC(=O)O.CC(=O)n1cc(CCN(C)C)c2cc(CC3COC(=O)N3)ccc21 (stereo not shown) [Example 6]
Ans: ~12 min
